tested on: Pseudogymnoascus destructans 20631-21; test: growth activity index (DuctApe, 0 = no growth, 9 = maximal growth) (index 0-9); higher = more fungal growth (less inhibition), active = 0 or less; extreme values may be limits of the assay; conditions: concentration level (1-4, increasing; Biolog proprietary): 3; temperature: 13 °C; YPD;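 note: biolog Phenotype Microarray plates PM21–25, OD595 followed daily over 11 days, growth curves converted to index, mean of two independent experiments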
metric: growth activity index

1. O=C(O)C(O)C(O)C(=O)O (centres undefined) [Tartaric acid] (Biolog plate: PM25) :: 4.33
2. NC[C@@H]1O[C@H](O[C@H]2[C@@H](O)[C@H](O[C@@H]3[C@@H](O)[C@H](N)C[C@H](N)[C@H]3O[C@H]3O[C@H](CN)[C@@H](O)[C@H](O)[C@H]3N)O[C@@H]2CO)[C@H](N)[C@@H](O)[C@@H]1O [Neomycin] (Biolog plate: PM21) :: 2.5
3. [Cl-].[Li+] [Lithium chloride] (Biolog plate: PM22) :: 0
4. On1ccccc1=S [1-Hydroxypyridine-2-thione (pyrithione)] (Biolog plate: PM21) :: 4.25
5. CN(C)CCC=C1c2ccccc2CCc2ccccc21 [Amitriptyline] (Biolog plate: PM25) :: 2.67
6. O=C(O)CCC(=O)O [Succinic acid] (Biolog plate: PM25) :: 3.67
7. CC(=O)OCC1=C(C(=O)O)N2C(=O)[C@@H](NC(=O)Cc3cccs3)[C@H]2SC1 [Cephalotin] (Biolog plate: PM22) :: 5
8. COc1ccc2cc3[n+](cc2c1OC)CCc1cc2c(cc1-3)OCO2 [Berberine Chloride] (Biolog plate: PM24) :: 0.333
9. C=C(CC[C@]12O[C@H](C(=O)O)[C@@](O)(C(=O)O)[C@](C(=O)O)(O1)[C@H](OC(=O)/C=C/[C@@H](C)C[C@@H](C)CC)[C@H]2O)[C@@H](OC(C)=O)[C@H](C)Cc1ccccc1 [Zaragozic acid A] (Biolog plate: PM24) :: 0.667
10. CSc1ccc2c(c1)N(CCC1CCCCN1C)c1ccccc1S2 (centres undefined) [Thioridazine] (Biolog plate: PM24) :: 0
11. CCCCCCCC(=O)[O-].[Na+] [Sodium Caprylate] (Biolog plate: PM23) :: 4
12. NCCSCC(N)C(=O)O (centres undefined) [Thialysine] (Biolog plate: PM24) :: 4.67
13. [I-].[K+] [Potassium iodide] (Biolog plate: PM22) :: 0
14. C[C@H]1c2cccc(O)c2C(=O)C2=C(O)[C@]3(O)C(=O)C(C(N)=O)=C(O)[C@@H](N(C)C)[C@@H]3[C@@H](O)[C@@H]21 [Doxycycline] (Biolog plate: PM23) :: 5.33
15. O.O.O.O.O.O.[Cl-].[Cl-].[Mg+2] [Magnesium chloride] (Biolog plate: PM21) :: 4
16. CO/N=C(\C(=O)N[C@@H]1C(=O)N2C(C(=O)O)=C(CSc3nc(=O)c(O)nn3C)CS[C@H]12)c1csc(N)n1 [Ceftriaxone] (Biolog plate: PM22) :: 0
17. N[C@@H]1CONC1=O [D-Cycloserine] (Biolog plate: PM21) :: 4.25
18. CN1CCN(CCCN2c3ccccc3Sc3ccc(C(F)(F)F)cc32)CC1 [Trifluoperazine] (Biolog plate: PM21) :: 3.5
19. NCC(=O)NO [Glycine hydroxamate] (Biolog plate: PM22) :: 2
20. COc1cc(/C=C/C(=O)O)ccc1O [Ferulic acid] (Biolog plate: PM25) :: 0
21. O=c1[nH]c(=O)n([C@H]2C[C@H](O)[C@@H](CO)O2)cc1F [Fluorodeoxyuridine] (Biolog plate: PM25) :: 4.33
22. CCCCCCCCCCCCCCCCOP(=O)([O-])OCC[N+](C)(C)C [Miltefosine] (Biolog plate: PM22) :: 0
23. O=C(O)CC(O)C(=O)O (centres undefined) [Malic acid] (Biolog plate: PM25) :: 2.67
24. O.O=S(=O)([O-])[O-].O=S(=O)([O-])[O-].O=S(=O)([O-])[O-].[Al+3].[Al+3] [Aluminum sulfate] (Biolog plate: PM24) :: 6
25. O=C([O-])c1ccccc1.[Na+] [Sodium Benzoate] (Biolog plate: PM24) :: 4.67
26. O=C(O)/C=C/c1ccccc1 [Cinnamic acid] (Biolog plate: PM25) :: 5
27. [Cl][Co][Cl] [Cobalt (II) chloride] (Biolog plate: PM23) :: 4.33
28. Clc1ccc(COC(Cn2ccnc2)c2ccc(Cl)cc2Cl)c(Cl)c1 (centres undefined) [Miconazole Nitrate] (Biolog plate: PM24) :: 0.333
29. O=C(O)/C=C/C(=O)O [Fumaric acid] (Biolog plate: PM25) :: 4
